system: Bacillus subtilis; assay: Antibacterial activity against Bacillus subtilis after 24 hrs by twofold serial dilution method; type: functional
MEASURED PARAMETER: Activity (µM)
Answer format: numeric, µM implied, no suffix.

Here is how some compounds turned out for Activity.
COMPOUND | REPORTED VALUE
COc1ccc(/C=N/CC/N=C/c2ccc(OC)cc2)cc1 | 1518
Nc1ccccc1N | 5548
O=C(O)c1cn(C2CC2)c2cc(N3CCNCC3)c(F)cc2c1=O | 1.09

Enter reported Activity observed with Bacillus subtilis for COc1c(N2CCNC(C)C2)c(F)cc2c(=O)c(C(=O)O)cn(C3CC3)c12 (centres undefined)
4

Again, but for `C[C@H]1COc2c(N3CCN(C)CC3)c(F)cc3c(=O)c(C(=O)O)cn1c23.C[C@H]1COc2c(N3CCN(C)CC3)c(F)cc3c(=O)c(C(=O)O)cn1c23.O`
2.21

Here is the next compound: `CCN1CCN(c2cc3c(cc2F)c(=O)c(C(=O)O)cn3C2CC2)CC1`
3.9

Would you kindly repeat that for `COc1ccc(/N=C(C)\C(C)=N\c2ccc(OC)cc2)cc1` ?
1518

Then this compound: `C/C(=N/c1ccccc1/N=C(\C)c1ccccc1)c1ccccc1`
1600

Same question for `CCn1cc(C(=O)O)c(=O)c2cc(F)c(N3CCN(C)CC3)cc21` please.
2.4

What do you get for CC1COc2c(N3CCN(C)CC3)c(F)cc3c(=O)c(C(=O)O)cn1c23 (centres undefined) ?
1.38

Next record, please: `NCCN`
9151

Follow-up item: `CCn1cc(C(=O)O)c(=O)c2cc(F)c(N3CCNCC3)cc21`
2.51

// query: `C[C@@H]1CN(c2c(F)c(N)c3c(=O)c(C(=O)O)cn(C4CC4)c3c2F)C[C@H](C)N1`
2.04

Also, `Nc1cccc2cccc(N)c12` please.
3476

Reference for the values: ChEMBL document CHEMBL1152508
